# target entity: GSK3a (GST-full length GSK3a) (Homo sapiens, UniProt P49840)
# Construct: GST-full length GSK3a [SignalChem G08-10G]; purchased SignalChem G08-10G
# Sequence (P49840 whole entry): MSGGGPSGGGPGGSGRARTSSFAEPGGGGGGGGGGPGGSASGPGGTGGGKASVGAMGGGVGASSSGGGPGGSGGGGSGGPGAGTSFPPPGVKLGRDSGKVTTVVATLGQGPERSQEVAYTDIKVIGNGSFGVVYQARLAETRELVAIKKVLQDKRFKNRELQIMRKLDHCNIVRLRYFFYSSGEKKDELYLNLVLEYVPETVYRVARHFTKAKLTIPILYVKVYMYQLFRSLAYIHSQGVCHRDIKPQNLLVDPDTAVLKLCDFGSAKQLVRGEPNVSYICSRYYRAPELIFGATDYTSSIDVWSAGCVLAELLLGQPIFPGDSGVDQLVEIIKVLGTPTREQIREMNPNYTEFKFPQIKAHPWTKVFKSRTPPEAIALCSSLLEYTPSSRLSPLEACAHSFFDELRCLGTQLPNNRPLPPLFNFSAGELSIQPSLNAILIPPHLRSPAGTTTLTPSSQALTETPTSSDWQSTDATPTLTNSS
# assay summary: GSK3a TR-FRET kinase inhibition assay
# Format: biochemical
# particulars: 1 mM ATP; Table 4; read-out: GSK3α TR-FRET 1 mM ATP GMean IC50
reported endpoint: IC50

Guide cases for IC50, answers given:
CCC1(c2cccc(-c3ccncc3C)c2)C2=C(CC(C)(C)CC2=O)Nc2ncccc21 (single isomer, unassigned) [Compound 1020B] ... 100 to 1000 nM
CCC1(c2ccccc2)C2=C(CC(C)(C)CC2=O)Nc2ncc(F)cc21 (single isomer, unassigned) ... 100 to 1000 nM

Okay, next one:
[Q] Would you kindly share the measured IC50 for CCC1(c2cccc(-c3c(C)nn(C)c3C)c2)C2=C(CC(C)(C)CC2=O)Nc2ncccc21 (single isomer, unassigned) [Compound 150B] ?
[A] 100 to 1000 nM

// provenance: patent US20260103465A1
